All values here come from patent US8987312B2.

target: purified recombinant rat FAAH (Rattus norvegicus); construct: The truncated rat FAAH (rFAAH) was expressed in E. coli and purified as described; made in house; host or cells: Escherichia coli; test: FAAH inhibition enzyme assay (14C-oleamide hydrolysis, Dixon plot), rat enzyme; assay type: biochemical; settings: Table 2; rat FAAH, pH 9 assay conditions; read-out: Ki
Sequence (P97612 30-579 limits assumed): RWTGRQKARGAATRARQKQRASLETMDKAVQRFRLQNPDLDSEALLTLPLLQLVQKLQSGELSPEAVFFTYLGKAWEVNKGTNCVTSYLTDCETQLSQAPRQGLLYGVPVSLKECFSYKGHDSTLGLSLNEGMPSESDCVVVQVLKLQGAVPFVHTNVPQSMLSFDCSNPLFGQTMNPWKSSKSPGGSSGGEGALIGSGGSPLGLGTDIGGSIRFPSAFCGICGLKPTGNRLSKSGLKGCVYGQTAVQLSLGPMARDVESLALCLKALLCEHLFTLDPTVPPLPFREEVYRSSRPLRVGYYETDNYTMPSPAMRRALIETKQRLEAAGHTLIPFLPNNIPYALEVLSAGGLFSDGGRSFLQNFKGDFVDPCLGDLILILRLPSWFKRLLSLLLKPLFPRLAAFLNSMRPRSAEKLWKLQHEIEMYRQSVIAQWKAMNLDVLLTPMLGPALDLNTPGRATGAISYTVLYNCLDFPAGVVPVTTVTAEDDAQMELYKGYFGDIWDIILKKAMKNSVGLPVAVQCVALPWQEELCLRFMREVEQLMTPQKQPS
OUTCOME_MEASURE: Ki (nM)

MOLECULE	Ki / nM
O=C(CCCCCCc1ccccc1)c1ncc(-c2cccs2)s1 [11d]	2000
O=C(CCCCCCc1ccccc1)c1nnc(-c2ccccn2)o1	0.29
O=C(CCCCCCc1ccccc1)c1nnn(-c2ccco2)n1 [15c]	5
O=C(CCCCCCc1ccccc1)c1nnc(-c2ccco2)o1	0.56
O=C(CCCCCCc1ccccc1)c1cccnn1 [13a, 7-Phenyl-1-(pyridazin-3-yl)-heptan-1-one]	140

1: COC(=O)c1cccc(-c2ccc(C(=O)CCCCCCc3ccccc3)nn2)n1 [13f]
2: O=C(CCCCCCc1ccccc1)c1ncno1
Response body: label of entry with the larger Ki; valid values 1 , 2 . Your choice should be expressed through its label. 1

* * *

biological target: triacylglycerol hydrolase (TGH) (Mus musculus); construct: with FP-Rh in brain and heart membrane proteome; from tissue; host or cells: brain and heart membrane proteome; experiment: Activity based protein profiling (proteome-wide selectivity screening, FP-Rh), TGH; format: biochemical; details: Table 4; ratio TGH IC50 / FAAH IC50 (fold selectivity for FAAH)
Sequence (Q8VCT4 19-565): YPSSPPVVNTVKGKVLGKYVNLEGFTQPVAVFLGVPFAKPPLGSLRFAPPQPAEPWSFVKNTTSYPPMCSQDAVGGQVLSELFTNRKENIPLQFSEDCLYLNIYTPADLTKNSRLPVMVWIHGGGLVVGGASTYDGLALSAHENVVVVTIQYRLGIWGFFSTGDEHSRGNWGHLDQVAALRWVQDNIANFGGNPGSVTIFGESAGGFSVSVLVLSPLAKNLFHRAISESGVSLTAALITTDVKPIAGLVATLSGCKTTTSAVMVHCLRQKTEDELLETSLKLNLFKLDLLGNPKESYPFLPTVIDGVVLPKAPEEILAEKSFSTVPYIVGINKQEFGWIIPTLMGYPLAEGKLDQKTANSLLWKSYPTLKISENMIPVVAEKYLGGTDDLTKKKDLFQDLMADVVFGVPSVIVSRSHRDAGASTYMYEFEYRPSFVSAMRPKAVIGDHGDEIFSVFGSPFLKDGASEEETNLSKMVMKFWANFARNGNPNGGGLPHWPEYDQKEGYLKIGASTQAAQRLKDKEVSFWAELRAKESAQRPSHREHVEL
OUTCOME_MEASURE: TGH selectivity (value in parentheses)

I: O=C(CCCCCCc1ccccc1)c1cccnn1 [13a, 7-Phenyl-1-(pyridazin-3-yl)-heptan-1-one]
II: COC(=O)c1nc(C(=O)CCCCCCc2ccccc2)no1 [10h]
III: O=C(CCCCCCc1ccccc1)c1nnc(-c2ccccc2)o1 [8e]
# descending TGH selectivity (value in parentheses) order for the listed molecules A ranking is expressed here by listing the labels in the requested order. II, III, I
(II: 20, III: 10, I: 1)

* * *

Listing of recorded KIAA1363 selectivity (value in parentheses) by entry.
molecular target: KIAA1363 (Mus musculus); construct: with FP-Rh in brain and heart membrane proteome; from tissue; host or cells: brain and heart membrane proteome; experiment: Activity based protein profiling (proteome-wide selectivity screening, FP-Rh), KIAA1363; type: biochemical; conditions: Table 4; ratio KIAA1363 IC50 / FAAH IC50 (fold selectivity for FAAH)
Sequence (Q8BLF1 whole entry): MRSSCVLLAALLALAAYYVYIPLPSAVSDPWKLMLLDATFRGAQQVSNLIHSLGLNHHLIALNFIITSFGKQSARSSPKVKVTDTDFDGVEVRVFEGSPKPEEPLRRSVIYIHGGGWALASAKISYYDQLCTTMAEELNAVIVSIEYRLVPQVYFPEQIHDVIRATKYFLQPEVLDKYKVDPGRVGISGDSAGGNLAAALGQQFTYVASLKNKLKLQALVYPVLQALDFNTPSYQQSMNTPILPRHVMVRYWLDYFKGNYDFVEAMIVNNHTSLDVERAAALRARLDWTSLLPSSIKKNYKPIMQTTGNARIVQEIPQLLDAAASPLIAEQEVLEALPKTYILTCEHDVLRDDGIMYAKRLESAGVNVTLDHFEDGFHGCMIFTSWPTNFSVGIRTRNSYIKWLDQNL

Record excerpt, results attached:
MOLECULE	TARGET_OF_ASSAY	REPORTED_VALUE
O=C(CCCCCCc1ccccc1)c1nnc(-c2ccccc2)o1 [8e]	KIAA1363 (Mus musculus)	> 4000
O=C(O)c1cccc(-c2nc(C(=O)CCCCCCc3ccccc3)no2)n1 [10g]	KIAA1363 (Mus musculus)	> 1400
O=C(CCCCCCc1ccccc1)c1ncc(-c2cccs2)o1 [7d]	KIAA1363 (Mus musculus)	> 125
O=C(CCCCCCc1ccccc1)c1nnco1 [8a]	KIAA1363 (Mus musculus)	> 6250

Here COC(=O)c1cccc(-c2noc(C(=O)CCCCCCc3ccccc3)n2)n1 [9f] was tested on KIAA1363 (Mus musculus), and its KIAA1363 selectivity (value in parentheses) came to 13000

Here O=C(CCCCCCc1ccccc1)c1nnc(-c2ccccn2)s1 [12b] was tested on KIAA1363 (Mus musculus), and its KIAA1363 selectivity (value in parentheses) came to > 3300
